system: MAST2, Q6P0Q8
Sequence (Q6P0Q8 1099-1202): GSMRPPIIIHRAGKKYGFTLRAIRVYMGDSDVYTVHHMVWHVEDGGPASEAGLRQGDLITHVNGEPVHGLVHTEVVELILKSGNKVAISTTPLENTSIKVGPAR
protocol: holdup assay
Set-up: key: below the threshold = too weak to quantify, mostly under pKd 3.1 to 4
experimental.setup: plain residues with an end cap or a label only (N-terminal biotin on a linker: ado-ado)
observable: pKd
Answer field: number only, no words.

Notebook: NISARRFTLC [FAM167B, Q9BTA0] , pKd read as 4.89

Notebook: SAGADSETHC [SLCO1B1, Q9Y6L6] , pKd read as 4.62

Notebook: NTALVESEDL [PALLS, Q8WX93;Q8WX93-1] , pKd read as 5.15

Notebook: IGHEDLETAV [DGKI, O75912] , pKd read as 5.47
